Reference source: patent US10882837B2

# System Under Test: glucagon receptor (GCGR) (Homo sapiens)
# Sequence (P47871 26-477, species assumed): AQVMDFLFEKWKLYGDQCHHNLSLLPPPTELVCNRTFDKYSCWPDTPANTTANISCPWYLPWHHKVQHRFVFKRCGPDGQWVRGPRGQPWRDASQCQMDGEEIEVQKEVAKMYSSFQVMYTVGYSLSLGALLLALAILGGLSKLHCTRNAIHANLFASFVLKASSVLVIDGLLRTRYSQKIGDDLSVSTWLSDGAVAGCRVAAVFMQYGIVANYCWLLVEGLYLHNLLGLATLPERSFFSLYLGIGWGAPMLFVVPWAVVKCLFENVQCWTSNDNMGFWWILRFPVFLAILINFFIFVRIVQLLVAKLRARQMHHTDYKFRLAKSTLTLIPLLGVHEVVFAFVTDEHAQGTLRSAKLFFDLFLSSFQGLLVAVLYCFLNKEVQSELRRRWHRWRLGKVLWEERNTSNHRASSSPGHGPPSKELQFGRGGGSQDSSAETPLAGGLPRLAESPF
# Protocol Summary: Glucagon cAMP inhibition assay (Cisbio cAMP Dynamic 2 HTRF)
# Test Context: GCGR overexpressed CHO-K1 cells or human primary hepatocytes (not specified); glucagon at EC50
This listing pairs molecules with measured IC50.
State the answer as a number, implicitly in µM.

| Molecule | IC50 [µM] |
| --- | --- |
| CCOC(=O)CCNC(=O)c1ccc(N[C@H](c2ccc(-c3nnc(C(F)(F)F)o3)cc2)C(C)CC)cc1 (stereo partly shown) [Compound 1-34] | 0.042 |
| CC(C)CC(Nc1ccc(C(=O)NCCC(=O)O)cc1)c1ccc(-c2nnc(C(F)(F)F)o2)cc1 (stereo not shown) [Compound 1-9] | 17.1 |

Next up:
Data request: Look up and state reported IC50 for CCOC(=O)CCNC(=O)c1ccc(N[C@@H](c2ccc(-c3noc(-c4ccccc4)n3)cc2)C(C)C)cc1 [Compound 2-22]
Data returned: 0.245
